tested on: peripheral blood mononuclear cells (PBMC); experiment: IL-6 secretion by PBMC (ELISA); format: cell-based, human; set-up: dose or concentration left out as unconfirmed; details: 24 hrs culture
Metric: IL-6 secretion by PBMC

Quick one: IL-6 secretion by PBMC for DSSAHGAPSTPADSSAHGTPSTPVDSSAHGTPSTPA [TR3] ?
less active

Which IL-6 secretion by PBMC is listed for DSSAHGAPSTPADSSAHGTPSTPV [TR2] ?
less active

Need IL-6 secretion by PBMC, item DSSAHGAPSTPA [peptide TR1]
less active
